B1: ZNF649 (parent)
chain: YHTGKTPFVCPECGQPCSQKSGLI

Variants of: B1
Assay: protein stability index of a GFP-peptide fusion (GPS, HEK-293T) (PSI 1-6); higher = more stable;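 also: lentivirally expressed fusions sorted by FACS into six bins by GFP to DsRed ratio, PSI derived from sequencing read proportions per bin multiplied by bin number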
Settings: c terminus: a fixed tail appended
# label = y if protein stability index >= 2 else n

sequenceInput: YHTGKTPFVCPECGQPCSQKSGAI
labelValue: n
//
sequenceInput: YHTGKTPFVCPECGQPCSQKSHLI
labelValue: y
//
sequenceInput: YHTGKTPFVCPECGMPCSQKSGLI
labelValue: y
//
sequenceInput: YHTGKTPFVCPECGQPCSQKSALI
labelValue: n
//
sequenceInput: YHTGYTPFVCPECGQPCSQKSGLI
labelValue: y
//
sequenceInput: YHTGKHPFVCPECGQPCSQKSGLI
labelValue: y
//
sequenceInput: YHTGKTPFVCPECGQPCSQKSQLI
labelValue: y
//
sequenceInput: YHTGKTPFVCPEIGQPCSQKSGLI
labelValue: y
//
sequenceInput: YHTGKTPFVCPECPQPCSQKSGLI
labelValue: y
//
sequenceInput: YHEGKTPFVCPECGQPCSQKSGLI
labelValue: y
//
sequenceInput: YHTGKTPFVCPECGQPCSAKSGLI
labelValue: n
//
sequenceInput: YHTGKTPFVCNECGQPCSQKSGLI
labelValue: n
//
sequenceInput: YHTVKTPFVCPECGQPCSQKSGLI
labelValue: y
//
sequenceInput: YHTGKTPFVCPECGQPCSQYSGLI
labelValue: y
//
sequenceInput: YETGKTPFVCPECGQPCSQKSGLI
labelValue: y
//
sequenceInput: YHTGKTPFVCPECGQPCSQKSVLI
labelValue: y
//
sequenceInput: YHTGTTPFVCPECGQPCSQKSGLI
labelValue: n
//
sequenceInput: YHTGKTPFVCDECGQPCSQKSGLI
labelValue: n
//
sequenceInput: YHTGKTPFVCPECGQPSSQKSGLI
labelValue: y
//
sequenceInput: YHTGGTPFVCPECGQPCSQKSGLI
labelValue: y
//
sequenceInput: YHTGKTPFVCPECGQPCTQKSGLI
labelValue: y
//
sequenceInput: YHTGKTPFVCPECGQCCSQKSGLI
labelValue: y
//
sequenceInput: YHTGKTPFVCRECGQPCSQKSGLI
labelValue: n
//
sequenceInput: YHTGKTPFVCPWCGQPCSQKSGLI
labelValue: y
//
sequenceInput: YHTGKTPFVCPECGQPCSQKSGMI
labelValue: n
//
sequenceInput: YHTGKNPFVCPECGQPCSQKSGLI
labelValue: y
//
sequenceInput: YHTGKTPFVCPECGQPCSQKRGLI
labelValue: n
//
sequenceInput: YHTGFTPFVCPECGQPCSQKSGLI
labelValue: n
//
sequenceInput: YHTGKTPFVCPECGQPPSQKSGLI
labelValue: y
//
sequenceInput: YHTGKTPDVCPECGQPCSQKSGLI
labelValue: y
//
sequenceInput: YHTGKTPFVCPECGQPCSQKHGLI
labelValue: n
//
sequenceInput: YHTGKTPFVCPECGQPCFQKSGLI
labelValue: y
//
sequenceInput: YHTGKTPFVCPECGWPCSQKSGLI
labelValue: n
//
sequenceInput: YHTGKTPFVCPECGQPASQKSGLI
labelValue: y
//
sequenceInput: YHTGKTPFVCPECGQPCSQKSGNI
labelValue: y
//
sequenceInput: YHTFKTPFVCPECGQPCSQKSGLI
labelValue: y
//
sequenceInput: YHTGKTPFVCPECGQPCSQISGLI
labelValue: y
//
sequenceInput: YHTGKTPFVIPECGQPCSQKSGLI
labelValue: y
//
sequenceInput: YHTGKTPFVCPECGQPFSQKSGLI
labelValue: n
//
sequenceInput: YHTGKTPFVCPECGQDCSQKSGLI
labelValue: n
//
sequenceInput: YHTGKCPFVCPECGQPCSQKSGLI
labelValue: n
//
sequenceInput: YHTGKTPFVCMECGQPCSQKSGLI
labelValue: y
//
sequenceInput: YHTGKTPFVCPECGQRCSQKSGLI
labelValue: n
//
sequenceInput: YHTGKTPFVCPECGQECSQKSGLI
labelValue: y
//
sequenceInput: YHTGKTPFVCPECVQPCSQKSGLI
labelValue: y
//
sequenceInput: YHTGKTPFVCPECGQPCSHKSGLI
labelValue: y
//
sequenceInput: YHTGKTPFVCPECGQPCSQKSTLI
labelValue: n
//
sequenceInput: YHTGKTLFVCPECGQPCSQKSGLI
labelValue: y
//
sequenceInput: YHTGKTPRVCPECGQPCSQKSGLI
labelValue: y
//
sequenceInput: YHTGKTPFVCPECGQPMSQKSGLI
labelValue: y
//
sequenceInput: YHTGKTPFVCHECGQPCSQKSGLI
labelValue: y
//
sequenceInput: YHTMKTPFVCPECGQPCSQKSGLI
labelValue: n
//
sequenceInput: YHTGKDPFVCPECGQPCSQKSGLI
labelValue: n
//
sequenceInput: YHTGKTPFVCPECGQPCAQKSGLI
labelValue: y
//
sequenceInput: YHTGKMPFVCPECGQPCSQKSGLI
labelValue: n
//
sequenceInput: YHTGKTPFVCPECGNPCSQKSGLI
labelValue: y
//
sequenceInput: YHTGKTPFVCPECGQPCPQKSGLI
labelValue: y
//
sequenceInput: YHTGKTPFVCPTCGQPCSQKSGLI
labelValue: y
//
sequenceInput: YHTEKTPFVCPECGQPCSQKSGLI
labelValue: y
//
sequenceInput: YHTGKTPFVCPECGQPCSQKFGLI
labelValue: n
//
sequenceInput: YHTGKTPFVCPECKQPCSQKSGLI
labelValue: y
//
sequenceInput: YHTLKTPFVCPECGQPCSQKSGLI
labelValue: y
//
sequenceInput: YHTGKTPFVRPECGQPCSQKSGLI
labelValue: n
//
sequenceInput: YHTGKTPPVCPECGQPCSQKSGLI
labelValue: y
//
sequenceInput: YHTGKTPFVCPECGQPCSQKSGLG
labelValue: y
//
sequenceInput: YWTGKTPFVCPECGQPCSQKSGLI
labelValue: y
//
sequenceInput: YHTGKTPFWCPECGQPCSQKSGLI
labelValue: y
//
sequenceInput: YHTGKTPMVCPECGQPCSQKSGLI
labelValue: n
//
sequenceInput: YHTGKTPFVCPECGQPCSQKSELI
labelValue: y
//
sequenceInput: YHTGKTPFVCPECGQPCSQKMGLI
labelValue: y
//
sequenceInput: YHTGKTPCVCPECGQPCSQKSGLI
labelValue: n
//
sequenceInput: YHTGKTPFVCPECAQPCSQKSGLI
labelValue: y
//
sequenceInput: YHTGKTPFVCPECGYPCSQKSGLI
labelValue: n
//
sequenceInput: YHTGKTPFVCPECGQPCSQKSGSI
labelValue: y
//
sequenceInput: YHTGKTPFVCPECGQICSQKSGLI
labelValue: n
//
sequenceInput: YHTGKTPFVCPECGQNCSQKSGLI
labelValue: n
//
sequenceInput: YHTGNTPFVCPECGQPCSQKSGLI
labelValue: n
//
sequenceInput: YHVGKTPFVCPECGQPCSQKSGLI
labelValue: y
//
sequenceInput: YHTGKTPFVCPECGQPCSQKSGLL
labelValue: n
//
sequenceInput: YHTGKTPFVCPEAGQPCSQKSGLI
labelValue: y
//
sequenceInput: YHTGKTPFVKPECGQPCSQKSGLI
labelValue: n
//
sequenceInput: YHTGKTPFVCPECGFPCSQKSGLI
labelValue: y
//
sequenceInput: YITGKTPFVCPECGQPCSQKSGLI
labelValue: y
